TEST_SYSTEM: Muscarinic acetylcholine receptor M1 (Homo sapiens) (UniProt P11229)
Sequence (P11229 whole entry, looked up): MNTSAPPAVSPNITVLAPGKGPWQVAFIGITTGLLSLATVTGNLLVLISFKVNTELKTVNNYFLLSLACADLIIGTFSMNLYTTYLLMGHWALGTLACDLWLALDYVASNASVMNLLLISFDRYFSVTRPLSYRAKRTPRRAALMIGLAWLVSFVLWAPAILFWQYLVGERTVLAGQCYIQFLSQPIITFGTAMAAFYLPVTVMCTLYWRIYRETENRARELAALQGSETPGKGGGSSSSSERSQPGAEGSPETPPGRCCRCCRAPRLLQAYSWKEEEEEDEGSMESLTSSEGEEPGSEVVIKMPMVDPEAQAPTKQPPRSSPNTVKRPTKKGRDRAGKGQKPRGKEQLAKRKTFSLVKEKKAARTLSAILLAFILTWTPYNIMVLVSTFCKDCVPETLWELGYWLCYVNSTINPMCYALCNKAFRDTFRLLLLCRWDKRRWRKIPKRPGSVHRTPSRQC
TEST: NVS_GPCR_hM1: NovaScreen (NVS) G Protein-Coupled Receptor Assay for human Muscarinic, M1 Receptor (AID 2283270)
Inconclusive results are not listed. Active and inactive are the calls of the source. How the source made its calls: active means hit-call score of the fitted dose curve at least 0.9, where 1 is the maximum; inconclusive means response in the unintended direction; inactive means score below 0.9.
Classes to choose from: Y = active, N = inactive

{"columns": ["COMPOUND", "CLASS_LABEL"],
 "data": [
  ["CCOC(=O)[C@H](C)Oc1ccc(Oc2nc3ccc(Cl)cc3o2)cc1", "N"],
  ["CCCCOC(=O)C(C)Oc1ccc(Oc2ccc(C(F)(F)F)cn2)cc1 (centres undefined)", "Y"],
  ["Oc1ccc(C(c2ccc(O)cc2)C(Cl)(Cl)Cl)cc1", "Y"]
]}

Turning to the following compound.
What call does the record list for CCOC(=O)C(C)Oc1ccc(Oc2nc3ccc(Cl)cc3o2)cc1 (centres undefined) ?
Y

* * *

Read-out: Monokine induced gamma interferon (MIG), CXCL9 (gene 4283)
TEST: BSK_CASM3C_MIG: BioMAP Diversity Plus: CASM3C Assay for Monokine induced gamma interferon (MIG) Biomarker Activity (AID 2283048);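 further: MIG protein level measured by ELISA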
CONDITIONS: primary human coronary artery smooth muscle cells; actives raise or lower the signal
Active and inactive are the calls of the source. The calls were made as follows: active = hit-call score of the fitted dose curve at least 0.9, where 1 is the maximum; inactive = score below 0.9.
Classes to choose from: active, inactive

Solved cases below.
{"columns": ["COMPOUND", "CLASS_LABEL"],
 "data": [
  ["c1ccc2[nH]c(-c3cscn3)nc2c1", "inactive"],
  ["CC(C)CCCCCCc1ccc(O)cc1", "active"],
  ["C#CCOC(=O)[C@@H](C)Oc1ccc(Oc2ncc(Cl)cc2F)cc1", "inactive"],
  ["CCC(C)OC(=O)N1CCCCC1CCO (stereo unspecified)", "inactive"],
  ["CC(C)(C)[C@@H](O)[C@@H](Cc1ccc(Cl)cc1)n1cncn1", "inactive"],
  ["C[C@]12CC[C@@H]3c4ccc(O)cc4C[C@@H](CCCCCCCCCS(=O)CCCC(F)(F)C(F)(F)F)[C@H]3[C@@H]1CC[C@@H]2O (stereo partly specified)", "inactive"],
  ["CC(=O)[C@H]1CC[C@H]2[C@@H]3CCC4=CC(=O)CC[C@]4(C)[C@H]3CC[C@]12C", "inactive"],
  ["C[C@]12C[C@H](O)[C@H]3[C@@H](CCC4=CC(=O)CC[C@@]43C)[C@@H]1CC[C@@H]2C(=O)CO", "inactive"]
]}

What call does the record list for OB(O)O ?
inactive

What call does the record list for CCCCOC(=O)C(C)Oc1ccc(Oc2ccc(C(F)(F)F)cn2)cc1 (stereo unspecified) ?
inactive

What call does the record list for c1ccc(Nc2ccccc2)cc1 ?
inactive

* * *

Read-out: Cytochrome P450 3A4 (Homo sapiens) (UniProt P08684)
Sequence (P08684 whole entry, looked up): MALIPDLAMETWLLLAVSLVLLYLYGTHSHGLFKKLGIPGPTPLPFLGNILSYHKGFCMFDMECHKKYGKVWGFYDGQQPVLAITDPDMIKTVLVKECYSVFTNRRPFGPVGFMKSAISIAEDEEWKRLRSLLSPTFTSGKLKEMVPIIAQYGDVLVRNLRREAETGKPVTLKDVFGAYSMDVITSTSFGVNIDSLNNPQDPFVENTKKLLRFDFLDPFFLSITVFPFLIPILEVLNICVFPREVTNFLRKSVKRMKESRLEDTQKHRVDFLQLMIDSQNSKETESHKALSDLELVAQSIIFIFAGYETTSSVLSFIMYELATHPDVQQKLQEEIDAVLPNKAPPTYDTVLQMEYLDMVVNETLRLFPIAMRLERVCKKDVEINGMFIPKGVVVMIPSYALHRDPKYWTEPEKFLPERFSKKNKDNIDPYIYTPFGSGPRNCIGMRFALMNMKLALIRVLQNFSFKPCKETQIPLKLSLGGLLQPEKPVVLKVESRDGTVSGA
TEST: LTEA_HepaRG_CYP3A4: Life Technologies and Expression Analysis (LTEA) Assay for CYP3A4 using HepaRG (AID 2283487)
CONDITIONS: mRNA level, 48 h; actives raise or lower the signal
Activity calls are given as the source filed them. How the source made its calls: active means hit-call score of the fitted dose curve at least 0.9, where 1 is the maximum; inactive means score below 0.9.
Classes to choose from: active, inactive

Solved cases below.
{"columns": ["COMPOUND", "CLASS_LABEL"],
 "data": [
  ["CCCCCOC(=O)COc1cc(N2C(=O)C3=C(CCCC3)C2=O)c(F)cc1Cl", "active"],
  ["CCOC(=O)C(C)Oc1ccc(Oc2cnc3cc(Cl)ccc3n2)cc1 (stereo not given)", "inactive"],
  ["Oc1ccc(C(c2ccc(O)cc2)C(Cl)(Cl)Cl)cc1", "active"],
  ["O=C(c1ccccc1)C1CCCCC1", "inactive"]
]}

Turning to the following compound.
What call does the record list for CCCN(CCC)c1c([N+](=O)[O-])cc(C(F)(F)F)c(N)c1[N+](=O)[O-] ?
active
